Ref: patent US9096853B2

- System: human colon cancer RKO cell line
- Protocol notes: Clonogenic assay in RKO cells
- Assay type: cell-based
- Run conditions: 6 hr exposure, colonies counted after 8 days, mean ± S.D., at least 3 experiments
Strand notation (5' to 3'): a small letter for the sugar, then the base; units joined by * are phosphorothioate-linked, units joined directly phosphodiester-linked; [ ] holds rarer units or linkages, { } end groups; capitals alone tell only the bases. [5FU] = 5-fluoro-2'-deoxyuridine (FdU); d = 2'-deoxy (DNA); r = 2'-OH (RNA)
Measurement kind: log10 of IC50 (log10 of the value in nM)
log10 IC50, nM

For TS6-1xF-dU/dA: ssiRNA with a single FdU residue at the 4th position in the sense strand; SEQ ID NO: 5 and 6 (chain 1 GGAUAUUGUCAGUCUUUAGGUUUUU; chain 2 CCUAAAGACUGACAAUAUCCAAAAA; FdU at position 4 of sense strand, chemistry not fully specified) , what is its reported log10 of IC50?
-0.47

Using the record for TS6-dA/FdU: TS-targeted ssiRNA with FdU modification of the 3′-end of antisense strand; SEQ ID NO: 11 and 12 (chain 1 GGAUAUUGUCAGUCUUUAGGAAAAA; chain 2 CCUAAAGACUGACAAUAUCCUUUUU; chain 1: sugars from the 5' end r20 d5, backbone not given here; chain 2: sugars from the 5' end r20 d5, [5FU] at 21, 22, 23, 24, 25, backbone not given here) , report its log10 of IC50.
-0.40

I have this substance here, TS6-FdU/FdU: TS-targeted ssiRNA, both 3′-ends modified with FdU; SEQ ID NO: 13 and 14 (chain 1 rGrGrArUrArUrUrGrUrCrArGrUrCrUrUrUrArGrGd[5FU]d[5FU]d[5FU]d[5FU]d[5FU]; chain 2 rCrCrUrArArArGrArCrUrGrArCrArArUrArUrCrCd[5FU]d[5FU]d[5FU]d[5FU]d[5FU]) , and I need its recorded log10 of IC50.
-0.37

Which log10 of IC50 is reported for this substance? TS6-FdU/dA: TS-targeted ssiRNA, all 3′-end overhang dU of sense strand replaced with FdU (5 FdU); SEQ ID NO: 9 and 10 (chain 1 GGAUAUUGUCAGUCUUUAGGUUUUU; chain 2 CCUAAAGACUGACAAUAUCCAAAAA; chain 1: sugars from the 5' end r20 d5, [5FU] at 21, 22, 23, 24, 25, backbone not given here; chain 2: sugars from the 5' end r20 d5, backbone not given here)
-0.77

Quick one: log10 of IC50 for Mis-FdU/dA: control, non-targeted ssiRNA containing 5 FdU residues on the sense strand; SEQ ID NO: 21 and 22 (chain 1 GGAUACUGCCAAUCUCUAGGUUUUU; chain 2 CCUAGAGAUUGGCAGUAUCCAAAAA; chain 1: sugars from the 5' end r20 d5, [5FU] at 21, 22, 23, 24, 25, backbone not given here; chain 2: sugars from the 5' end r20 d5, backbone not given here) ?
0.24

# input substance: TS6-dU/dA: unmodified TS-targeted ssiRNA, 5 dU on 3′-end of sense strand, 5 dA on 3′-end of antisense strand; SEQ ID NO: 3 and 4 (sense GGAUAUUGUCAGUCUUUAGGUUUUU; antisense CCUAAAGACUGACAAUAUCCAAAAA; sense: sugars from the 5' end r20 d5, backbone and T or U not given here; antisense: sugars from the 5' end r20 d5, backbone not given here) ; wanted: its log10 of IC50
0.25
